Assay Procedure: yeast display, Sf9 membrane polyspecificity reagent, FACS + sequencing; frameworks hold sequencing errors
Assay Metric: polyreactivity (PSR sort gate)

construct_sequence=QVQLVESGGGLVQAGGSLRLSCAASGIIFYDYAMGWYRQAPGKERELVAAISGSGGSTYYADSVKGRFTISRDNAKNTVYLQMNSLKPEDTAVYYCAARFTRQMYYWGQGTQVTVSS result="high polyreactivity"
construct_sequence=QLQLVESGGGLVQAGGSLRLSCAASGRTFVSIALGWYRQAPGKERELFAGINWTDDSTYYADSVKGRFTISRDNAKHSVYLQMNCLKPEDTAVYYCAADQQDGLWDYQDWYDYWGPGTQVTVSS result="low polyreactivity"
construct_sequence=QVQLVESGGCLVQAGGSLRLSCAASGSTFTSNAMGWYRQAAGKEWQFVAAISFGGGITYDADSVKGRFTISRDNAKNTVSLQMNSLKPEDTAVYYCAADGEYPHSEDFEYWGQGTQGTVSS result="low polyreactivity"
construct_sequence=QVQLVESGGGLVQAGGSLRLSCAASGIIFYYNAMGWYRQAPGKERELVAAISWSGGSTYYADSVKGRFTISRDNAKNTVYLQMNSLKPEDTAVYYCNAVRSTSYGSYNYWGQGTQVTVSS result="low polyreactivity"
construct_sequence=QVQLVESGGGLVQAGGSLRLICAASGRIFGTNAKGWYRQAPGKERELVADITSGGSTNYADSVKGRFTISRDNAKNTVYLQMNSLKPEDTAVYYCAADVIGDLRWYRDEYWGQGTQVTVSS result="low polyreactivity"
construct_sequence=QVQLVESGGGLVQAGGSLRLSCAASGFIMQYNAMGRYIQAPRKERELVAAITRSGVSTHYADSVKGRYTISRDNAKNTVYLQMISLKPEDTAVYYCARTGQSLYSRYYYWGQGTQVTVSS result="low polyreactivity"
construct_sequence=QVQLVESGGGLVQAGGSLRLSCAASGRTFGTNAMGWYRHAPGKERELVAANSRRGGSTYYAESVKGRFTISRDNEKNTVYLQMNSLKPEDTAVYYCAKTIGLKHEDEYWGQGTQVTVSS result="low polyreactivity"
construct_sequence=QVQLVESGGGLVQSGGSIRLSCAASGSTFLWYCMGWYRQAPGKERELVASISRGGGTDYADSVKGRFTISRDNAKNTVYLQMNSLKPEDTAVYYCAATGVNRYDHWGQGTHVTVSS result="low polyreactivity"
construct_sequence=QVQLVESGGGLVQAGCSLRLSCASSGSIFGRYAMGWYRQAPGKERELVAAISRGGSTNYADSVKGRFTISRDNAKNTVYLQLNSLKPEDTAVYYCNRKPYYVSSTRYDYWGQGSQVTVSS result="high polyreactivity"
construct_sequence=QVQLVESGGGLVQAGGSLRLTCSASGYTFPRYAMGWYRQAPGKERELVAVITRRGGSTYYADSVKGRFTISRDNAKNTVYLQMNSLKPEDTSVYYCAASDPSNKSSRPGYSYDSDSWGQGTQVTVSS result="high polyreactivity"
construct_sequence=QVQLVESGGGLVQAGGSLRLSCAASGSTFIGYVMGWYRQAPGKERELVAAISWTGSNKYYADSVKGRFTISRDNAKNTVYLQMNSLKPEDTAVYYCNARSFAPYKNYDYWGQGTQVTVSS result="low polyreactivity"

###

Assay Procedure: yeast display, Sf9 membrane polyspecificity reagent, FACS + sequencing; frameworks hold sequencing errors
Assay Metric: polyreactivity (PSR sort gate)

construct_sequence=QDQLVESVGGLVQAGGSLRLSCAASAITFGNYAMGWYRQAPGKERELVAGISWSGSSTYYADSVKGRFTISRDNSKNTVYLQMNSLKPEDTAVYYCNAVQPARFVGGFGTGVDYWGQGTQVTVSS assay_metric="polyreactivity (PSR sort gate)" result="high polyreactivity"
construct_sequence=QDQLVESGGGLVQAGGSLRLSCAASGLTFFYYAMGWSRQSPGKERELVAAISRGGSTYYADSVKGRFTISRDHAKYTVYLQMKSLNPEDTAVYYCAAKTYQKEIVRPMYYWGQGTQVTVSS assay_metric="polyreactivity (PSR sort gate)" result="high polyreactivity"
construct_sequence=QVQLVESGGGLVQAGGSLRLSCAASGIFRRYAMGWYRQAPGKERELVAAISYSGGSTEYADSVKGRFTISRDNAKNTVYLQMNSLKPEDTAVYYCAAVNRPRPRRSDYWGQGTQVTVSS assay_metric="polyreactivity (PSR sort gate)" result="high polyreactivity"
construct_sequence=QVQLVESGGGLVQAGGSLRLSCAASGSILARYAMGWYRPAPGKERELVAAISSRGGSTYYADSVKGRFTISRDNAKNTVYLEINSLKPEDTAVYSCAAYVYLQVEYDYWGHGTQVTVSS assay_metric="polyreactivity (PSR sort gate)" result="low polyreactivity"
construct_sequence=QVQLVESGGRLVQAGGSLRISRAASGFTFPSYTMGWYRQAPGKERELVAAITSSGGNTYYADSVKGRFTISRDNAKNTVYLQMNSLKPEVTAVYYCATVSVRWPSNDHVRYDYWGQGTQVTVSS assay_metric="polyreactivity (PSR sort gate)" result="low polyreactivity"
construct_sequence=QVQLVESGGGLVQAGGSLRLSCAASGRIFKDNAMGWYRQAPGKERELVATIDSGGDTNYADSVKGRFTISRDNAKNTVYLQMNSLKPEDTAVYYCNRDSRVLEGDYWGQGTQVTVSS assay_metric="polyreactivity (PSR sort gate)" result="low polyreactivity"
construct_sequence=QVQLVESGGGLVQAGGSLRLSCAASGRTFWHNAMGWYRQEPGKERELVAAITIRGGRTYYADSVKGRFTISRDNAKNTVYLQMNSLKPEDTAVYYCAAPPFVKMDYWGQGTQVTVSS assay_metric="polyreactivity (PSR sort gate)" result="high polyreactivity"
construct_sequence=QVQLVESGGGLVQAGGSLRLSCAASGSTFSDYPMGWYRQAPGKERELVAAISDSGSGTYYADSVKGRFTISRDNAKNTVYLQMNSLKPEDTAVYYCNTDPRFAMDWGQGTQVTVSS assay_metric="polyreactivity (PSR sort gate)" result="low polyreactivity"
construct_sequence=QLQLVESGGGLVQAGGSLRLSCAASGSIFGGYAMGWYRQAPGKERELVAAITGTDTTNYADSVKGRFTISRDNAKNTVYLQMNSLKPEDTAVFYCNADYQPVAAVYNYDYWGQGTQVTVSS assay_metric="polyreactivity (PSR sort gate)" result="low polyreactivity"
construct_sequence=QVQLVESGGGLVQAGGSLRLSCAASGRTFPVNAMGGYRQAPGKERELVAVINWGGTSTYYADSVKGRFTISRDNAKNTVYLQMNSLKPEDTAVYYCAARARYPGVGYNYWGQGTQVTVSS assay_metric="polyreactivity (PSR sort gate)" result="high polyreactivity"
construct_sequence=QVQLVESGGGLVQAGGSLRLSCAASGSTFFRYAMGWYRQAPGKERELVAAISKSGGTTSYADSVKGRITISRDNAKNTVYLQMNSLKQEDTAVYYCAARVQHIYDWGQGTQVTVSS assay_metric="polyreactivity (PSR sort gate)" result="high polyreactivity"

###

Assay Procedure: yeast display, Sf9 membrane polyspecificity reagent, FACS + sequencing; frameworks hold sequencing errors
Assay Metric: polyreactivity (PSR sort gate)

construct_sequence=QVQLVESGGGLVQAGGSLRLSCAASGSIFRSSDMGWYRQAPGKERELVAAISDSTGTTYYADSVKGRFTISRDNAKNTVYLQMNSLKPEDTAVYYCAADYFWYRSGRYHYWGQGTQVTVSS result="high polyreactivity"
construct_sequence=QVQLVESAGGLVQEGGSLRLICAASARTIVIYSMGWYRQAPGKEREFVAAISRSGGSTYYADSVKGRFTISRDNQKNTVYLQMNSLQPVDTAVYYCNTRTPYWFKSDYWGQGTQVTVSS result="low polyreactivity"
construct_sequence=QVQLVESGVGLLQAGGSLRISCAASGSIFFDNSMGRYRQAPGKERELVAAITWSGSRTYYADSVKGRFTISRDNAKNTVYLQMNSLKPEDTAVYYSNAVYWWYWALFTVGRYDYWGQGTQVTVSS result="high polyreactivity"
construct_sequence=QVQLVESGGGLVQARGSLRLSCAASGGIFYRNAMGWYRQAPGKERELVAAITQSGGRTYYADSVKGRFTISRDNAKNTVYLQMNSLKPEDTADYYCAKSRYTPTGSLQLNYWGQGTQVTVSS result="high polyreactivity"
construct_sequence=QVQLVESGGGLVQAGGSLRLSCAASGRTFLSYAMGWYRQAPGKEREFVASITLSGGSTYYADSVKGRFTISRDNAKNTVYLQMNSLKPEDTAVYYCNAELYWLPYDYWGQGTQVTVSS result="low polyreactivity"
construct_sequence=QVQLVESGGGLVQAGGSLRLSCAASGSTFYNYALGWYRQAPGKERELVAAIRRSGGSTYYADSVKGRFTISRDNAKNTVYFQMNSLKPEDTAVYYCAASYYTRGYWGQGTQVTVSS result="high polyreactivity"
construct_sequence=QVQLVESGGGLVQAGGCLRLSCAASGSTFRYYAMGWYRQAPGKERELVAAIYGGGTTYYADSVKGRFTISRDNAKNTVYLQLNSLKPEDTAVYYCAASILFSYYGRDDYWGQGTQVTVSS result="low polyreactivity"
construct_sequence=QVQLVESGGGLVQAGGSLRLSCAAPGSTFGRYAMGWYRQAPGKERELVAAISKSGGSTYYADSVKGRFTISRDNAKNTVYLQMNSLKPEDTAVYYCAATTTRYSYEYWGQGTQVTVSS result="low polyreactivity"
construct_sequence=QVQLVESGGGLVQAGGSLRVSCAASGFTFDQYAMGWYRQAPGKERELVAAISWSGASTYYADSVKGRFTISRDNAKNTDDLQMNSLKPEDTAVYYCAVSRRRIDYDYWGQGTQVTVSS result="high polyreactivity"
construct_sequence=QVQLVESGGGLVQAGGSLRLSCAASGSTFGRYAMGWYRQAPGKERELVATIDGSDGSTFYADSVKGRFTISRDNAKNTVYLQMNSLKPEDTAVYYCAAAWYDGYYYLVYYWGQGTQVTVSS result="low polyreactivity"
construct_sequence=QVQLVESGGGLLQAGGSLRLSCAASGSIFTLYDMGRYRQAPGKERELVAAITSGGSTDYADSVKGRFTISRDYAKNTVFLQMNSLKPEDTAVYYCNAEAYPYWYRGASRDYDYWGQGTQVTVSS result="low polyreactivity"
